The following compounds are listed with their measured cytotoxicity at 10 µM values.
Assay: Toxicity liver stage against HepG2, at 10uM
Format: cell-based
Set-up: test concentration 10 uM, cell line HepG2-A16-CD81EGFP
Conditions: human, HepG2-A16-CD81EGFP cells; read-out: INHIBITION

Compound | cytotoxicity at 10 µM [%]
CCO[C@H]1CO[C@@]2(CCCN(C(=O)c3ccc(OC)c(F)c3)C2)C1 | 5.69
CC(C)OCc1ccccc1CNC(=O)C(C)S(=O)(=O)C(C)C (stereo not given) | -3.92
Cc1c(C(=O)N2CCN(c3ccccn3)CC2)n(C)c2ccc(Cl)cc12 | 3.95
CN(C)C(=O)N1CCCC2(CCN(Cc3ccncc3)C2)C1 (stereo not given) | 7.61
Cn1cc(CNCCC(=O)NCc2ccccc2)c(-c2cccnc2)n1 | -2.19
CN(C)CCn1c2c(ccc1=O)CCN(C(=O)c1cccs1)CC2 | 0.0915
CCc1nc(CNC2CCN(S(C)(=O)=O)CC2)cs1 | 0.684
CCOc1ccc(SCCNS(=O)(=O)CC)cc1 | 2.71
CS(=O)(=O)N1CCC(c2ccncn2)CC1 | 6.77
Cc1ccc(CN(Cc2ccccn2)C(=O)[C@H]2CC[C@@H](N)C2)s1 | -0.327
CC(OCC1CC1)C(=O)N1CCCN(Cc2nccn2C)CC1 (stereo not given) | 2.48
CC(CCn1cccn1)Nc1ccc(-c2nccn2C)nn1 (stereo not given) | 1.39
CCS(=O)(=O)NCCNc1c(C#N)cnc2c(C)cc(F)cc12 | -0.453
Cc1cc(-c2cnn(CCNC(=O)C3CC3)c2C2CC2)on1 | 11.7
COc1cccc(-c2n[nH]c3c2CN(C(=O)c2cc(C)n(C)n2)CC3)c1 | -0.159
Cc1nc(S(=O)(=O)N2CCCCc3ccccc32)cn1C | -2.38
COCC1CN(C(=O)c2cccc(C)n2)Cc2nccn2C1 (stereo not given) | -103
O=C(c1ccc2[nH]ccc2c1)N1Cc2nc(CN3CCCC3)oc2C1 | 6.98
Cc1[nH]c2nc(CNc3ccccc3Cl)nn2c(=O)c1C | -1.29
COCC(=O)N1C[C@H]2CNC[C@@]2(C(=O)NCc2snnc2C)C1 | 8.27
